- Test system: T1, PSMA Fab (006 PSMA Fab) (Fab biotinylated for capture on neutravidin plates (site not given))
- T1 construct: also called Anti-PSMA Fab; anti-PSMA Fab
- Test method notes: clonal phage ELISA; biotinylated PSMA Fab on neutravidin plate, wells pre-incubated with PSMA antigen as competitor; anti-M13-HRP detection
Reported Phage binding ELISA signal, Anti-PSMA Fab in presence of PSMA antigen values for the following binders.
Value type: Phage binding ELISA signal, Anti-PSMA Fab in presence of PSMA antigen

Binder: FEFRCTPEWMCRGF (also called Peptide-180 library clone; not shown: pIII filament protein of the bacteriophage) [Phage-3453]
Test value: 0.0706
--
Binder: TINICKPQWMCIGF (also called Peptide-180 library clone; not shown: pIII filament protein of the bacteriophage) [Phage-3451]
Test value: 0.0893
--
Binder: MERFCIPSWMCEGL (also called Peptide-180 library clone; not shown: pIII filament protein of the bacteriophage) [Phage-3452]
Test value: 0.0682
